Subject Of Test: Muscarinic acetylcholine receptor M1 (Homo sapiens)
Test Name: Displacement of [3H]NMS from human muscarinic M1 receptor expressed in CHO Flp-In cells after 1 hr by microbeta liquid scintillation counting-based radioligand binding assay
Format: cell-based
Using Kb as the sorting value, the categories are low (below 20 µM), middle (20 µM to below 40 µM), high (40 µM or more)

Consider the following illustrative entries.
- Cn1cc(-c2ccc(CNc3ccccc3-c3ccn([C@H]4CCCC[C@@H]4O)c(=O)c3)cc2)cn1 (racemic): high
- O=c1cc(-c2ccccc2NCc2ccc(-c3ccncc3)cc2)ccn1[C@H]1CCCC[C@@H]1O (racemic): low
- COc1cccc(COc2ccccc2-c2ccn([C@H]3CCCC[C@@H]3O)c(=O)c2)c1 (racemic): high
- O=c1cc(-c2ccccc2OCc2ccccc2F)ccn1[C@H]1CCCC[C@@H]1O (racemic): middle

Problem: Which bin should I file O=c1cc(-c2ccccc2OCc2ccc(-c3ccncc3)cc2)ccn1[C@H]1CCCC[C@@H]1O (racemic) under?
Solution: low

Problem: Which bin should I file O=c1cc(-c2ccccc2OCc2ccc(-c3cnn(Cc4ccccc4)c3)cc2)ccn1[C@H]1CCCC[C@@H]1O (racemic) under?
Solution: middle

Problem: Which bin should I file O=c1cc(-c2ccccc2OCc2ccc(-c3cnn(CCO)c3)cc2)ccn1[C@H]1CCCC[C@@H]1O (racemic) under?
Solution: middle

Problem: Which bin should I file O=c1cc(-c2ccccc2OCc2ccc(-c3cnn(C4CCCC4)c3)cc2)ccn1[C@H]1CCCC[C@@H]1O (racemic) under?
Solution: low

====

Subject Of Test: Muscarinic acetylcholine receptor M1 (Homo sapiens) (UniProt P11229)
Sequence (P11229 whole entry): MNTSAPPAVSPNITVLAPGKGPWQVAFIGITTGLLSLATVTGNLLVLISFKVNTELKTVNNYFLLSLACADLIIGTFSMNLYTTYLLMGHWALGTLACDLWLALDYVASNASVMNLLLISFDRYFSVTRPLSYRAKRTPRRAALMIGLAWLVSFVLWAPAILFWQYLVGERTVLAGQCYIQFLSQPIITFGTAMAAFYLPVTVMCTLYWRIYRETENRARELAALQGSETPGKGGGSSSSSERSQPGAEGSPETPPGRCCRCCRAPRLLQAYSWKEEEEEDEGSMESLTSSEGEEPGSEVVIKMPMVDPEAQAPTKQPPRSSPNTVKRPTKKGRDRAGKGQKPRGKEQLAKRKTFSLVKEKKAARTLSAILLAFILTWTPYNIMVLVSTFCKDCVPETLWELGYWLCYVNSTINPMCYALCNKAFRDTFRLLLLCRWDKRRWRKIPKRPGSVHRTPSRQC
Test Name: Allosteric agonist activity at human muscarinic M1 receptor expressed in CHO Flp-In cells assessed as intrinsic activity measured as IP1 accumulation after 1 hr by HTRF method
Type: functional, cell-based
Measured Endpoint: log(IA)
Write the value as a bare number.

Form: item O=c1cc(-c2ccccc2NCc2ccc(-c3cncnc3)cc2)ccn1[C@H]1CCCC[C@@H]1O (racemic) ; test system Muscarinic acetylcholine receptor M1 (Homo sapiens) (UniProt P11229); log(IA): 0.04

Form: item Cn1cc(-c2ccc(CNc3ccccc3-c3ccn([C@H]4CCCC[C@@H]4O)c(=O)c3)cc2)cn1 (racemic) ; test system Muscarinic acetylcholine receptor M1 (Homo sapiens) (UniProt P11229); log(IA): -0.36

Form: item COC(=O)c1ccc(COc2ccccc2-c2ccn([C@H]3CCCC[C@@H]3O)c(=O)c2)cc1 (racemic) ; test system Muscarinic acetylcholine receptor M1 (Homo sapiens) (UniProt P11229); log(IA): -0.26

Form: item CCCCn1cc(-c2ccc(COc3ccccc3-c3ccn([C@H]4CCCC[C@@H]4O)c(=O)c3)cc2)cn1 (racemic) ; test system Muscarinic acetylcholine receptor M1 (Homo sapiens) (UniProt P11229); log(IA): -0.3

Form: item Cn1cc(-c2ccc(COc3c(F)ccc(F)c3-c3ccn([C@H]4CCCC[C@@H]4O)c(=O)c3)cc2)cn1 (racemic) ; test system Muscarinic acetylcholine receptor M1 (Homo sapiens) (UniProt P11229); log(IA): 0.13

Form: item Cn1cc(-c2ccc(COc3ccccc3-c3ccn([C@H]4CCCC[C@@H]4O)c(=O)c3)cn2)cn1 (racemic) ; test system Muscarinic acetylcholine receptor M1 (Homo sapiens) (UniProt P11229); log(IA): -3

Form: item CC(C)n1cc(-c2ccc(COc3ccccc3-c3ccn([C@H]4CCCC[C@@H]4O)c(=O)c3)cc2)cn1 (racemic) ; test system Muscarinic acetylcholine receptor M1 (Homo sapiens) (UniProt P11229); log(IA): -0.33

Form: item O=c1cc(-c2ccccc2OCc2ccccc2F)ccn1[C@H]1CCCC[C@@H]1O (racemic) ; test system Muscarinic acetylcholine receptor M1 (Homo sapiens) (UniProt P11229); log(IA): -0.36

====

Subject Of Test: Muscarinic acetylcholine receptor M1 (Homo sapiens) (UniProt P11229)
Test Name: Displacement of [3H]NMS from human muscarinic M1 receptor expressed in CHO Flp-In cells after 1 hr by microbeta liquid scintillation counting-based radioligand binding assay
Assay type: cell-based
Measured Endpoint: pKb
Write the value as a bare number.

The value of pKb measured for the compound O=c1cc(-c2ccccc2OCc2ccccc2)ccn1[C@H]1CCCC[C@@H]1O (racemic) turned out to be 4.55

====

Subject Of Test: Muscarinic acetylcholine receptor M1 (Homo sapiens) (UniProt P11229)
Test Name: Allosteric agonist activity at human muscarinic M1 receptor expressed in CHO Flp-In cells assessed as intrinsic activity measured as IP1 accumulation after 1 hr by HTRF method
Assay type: functional, cell-based
Mark each entry YES if its Intrinsic activity sits below 0.8, and NO for all others.

Consider the following illustrative entries.
- O=c1cc(-c2ccccc2OCc2ccc(-c3ccncc3)cc2)ccn1[C@H]1CCCC[C@@H]1O (racemic): YES
- O=c1cc(-c2ccccc2OCc2ccc(-c3cn[nH]c3)cc2)ccn1[C@H]1CCCC[C@@H]1O (racemic): NO
- O=c1cc(-c2ccccc2OCc2ccc(-c3cnn(CCO)c3)cc2)ccn1[C@H]1CCCC[C@@H]1O (racemic): YES
- O=c1cc(-c2ccccc2OCc2ccc(-c3cnn(C4CCCCC4)c3)cc2)ccn1[C@H]1CCCC[C@@H]1O (racemic): YES
- CC(C)n1cc(-c2ccc(COc3ccccc3-c3ccn([C@H]4CCCC[C@@H]4O)c(=O)c3)cc2)cn1 (racemic): YES

Problem: Please state whether Intrinsic activity is below 0.8 for O=C(O)c1cccc(COc2ccccc2-c2ccn([C@H]3CCCC[C@@H]3O)c(=O)c2)c1 (racemic)
Solution: YES

Problem: Please state whether Intrinsic activity is below 0.8 for O=c1cc(-c2ccccc2OCc2ccc(-c3ccccc3)cc2)ccn1[C@H]1CCCC[C@@H]1O (racemic)
Solution: NO

Problem: Please state whether Intrinsic activity is below 0.8 for CCCn1cc(-c2ccc(COc3ccccc3-c3ccn([C@H]4CCCC[C@@H]4O)c(=O)c3)cc2)cn1 (racemic)
Solution: YES

Problem: Please state whether Intrinsic activity is below 0.8 for Cn1cc(-c2ccc(COc3ccccc3-c3ccn([C@H]4CCCC[C@@H]4O)c(=O)c3)cc2)cn1 (racemic)
Solution: YES

Problem: Please state whether Intrinsic activity is below 0.8 for O=c1cc(-c2ccccc2OCc2ccc(-c3nccs3)cc2)ccn1[C@H]1CCCC[C@@H]1O (racemic)
Solution: YES

Problem: Please state whether Intrinsic activity is below 0.8 for O=c1cc(-c2ccccc2OCc2ccccc2F)ccn1[C@H]1CCCC[C@@H]1O (racemic)
Solution: YES

Problem: Please state whether Intrinsic activity is below 0.8 for CCCCn1cc(-c2ccc(COc3ccccc3-c3ccn([C@H]4CCCC[C@@H]4O)c(=O)c3)cc2)cn1 (racemic)
Solution: YES

Problem: Please state whether Intrinsic activity is below 0.8 for Cn1cc(-c2ccc(COc3ccccc3-c3ccn([C@H]4CCCC[C@@H]4O)c(=O)c3)c(F)c2)cn1 (racemic)
Solution: YES

====

Subject Of Test: Muscarinic acetylcholine receptor M1 (Homo sapiens)
Test Name: Allosteric agonist activity at human muscarinic M1 receptor expressed in CHO Flp-In cells assessed as intrinsic activity measured as IP1 accumulation after 1 hr by HTRF method
Format: functional, cell-based
Mark each entry True if its log(IA) sits below -0.4, and False for all others.

Consider the following illustrative entries.
- Cn1cc(-c2ccc(COc3ccccc3-c3cc(=O)n([C@H]4CCCC[C@@H]4O)cn3)cc2)cn1 (racemic): False
- O=c1cc(-c2ccccc2OCc2ccc(-c3cn[nH]c3)cc2)ccn1[C@H]1CCCC[C@@H]1O (racemic): False
- COc1ccc(COc2ccccc2-c2ccn([C@H]3CCCC[C@@H]3O)c(=O)c2)cc1 (racemic): True

Problem: Please state whether log(IA) is below -0.4 for COc1ccc(Cn2cc(C(=O)O)c(=O)c3ccccc32)cc1
Solution: True

Problem: Please state whether log(IA) is below -0.4 for O=c1cc(-c2ccccc2OCc2ccc(-c3cnn(CC4CC4)c3)cc2)ccn1[C@H]1CCCC[C@@H]1O (racemic)
Solution: True

Problem: Please state whether log(IA) is below -0.4 for O=c1cc(-c2ccccc2NCc2ccc(-c3cccnc3)cc2)ccn1[C@H]1CCCC[C@@H]1O (racemic)
Solution: False

Problem: Please state whether log(IA) is below -0.4 for O=c1cc(-c2ccccc2OCc2ccc(C(F)(F)F)cc2)ccn1[C@H]1CCCC[C@@H]1O (racemic)
Solution: False

Problem: Please state whether log(IA) is below -0.4 for O=c1cc(-c2ccccc2OCc2ccc(-c3ccncc3)cc2)ccn1[C@H]1CCCC[C@@H]1O (racemic)
Solution: False

Problem: Please state whether log(IA) is below -0.4 for O=c1cc(-c2ccccc2OCc2ccc(-c3cnn(CCO)c3)cc2)ccn1[C@H]1CCCC[C@@H]1O (racemic)
Solution: False

Problem: Please state whether log(IA) is below -0.4 for O=c1cc(-c2ccccc2OCc2ccc(-c3cccnc3)cc2)ccn1[C@H]1CCCC[C@@H]1O (racemic)
Solution: True

Problem: Please state whether log(IA) is below -0.4 for O=c1cc(-c2ccccc2OCc2ccc(-c3nccs3)cc2)ccn1[C@H]1CCCC[C@@H]1O (racemic)
Solution: False
